# self-cleavage per record follows
B1: CPEB3 Ribozyme (parent)
chain: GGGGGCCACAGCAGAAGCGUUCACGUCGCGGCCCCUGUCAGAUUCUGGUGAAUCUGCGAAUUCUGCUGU

# Variants of: B1
# test.description: self-cleavage, relative activity (ratio to wild type); higher = more cleavage; co-transcriptional
recorded.endpoint: self-cleavage

[
  {
    "variant.notation": "U20A G25A",
    "value": 0.198
  },
  {
    "variant.notation": "U21C C32A",
    "value": 0.741
  },
  {
    "variant.notation": "G17A G68C",
    "value": 0.704
  },
  {
    "variant.notation": "C24U U62A",
    "value": 0.441
  },
  {
    "variant.notation": "A15G G28U",
    "value": 0.141
  },
  {
    "variant.notation": "U20A A51C",
    "value": 0.151
  },
  {
    "variant.notation": "G41C C57U",
    "value": 0.329
  },
  {
    "variant.notation": "U21G C63A",
    "value": 0.245
  },
  {
    "variant.notation": "C22A U46G",
    "value": 0.148
  },
  {
    "variant.notation": "G25A U62A",
    "value": 0.187
  },
  {
    "variant.notation": "G19U C63A",
    "value": 0.179
  }
]
